Assay read-out GI50; system under study: SF-295.
Endpoint name: GI50 (µM)

Compound: COc1ccc(S(=O)(=O)Nc2cc(/C=C\c3cc(OC)c(OC)c(OC)c3)ccc2OC)cc1 [12a]
Target entity: SF-295
Number: 0.0393

Compound: COc1ccc(/C=C\c2cc(OC)c(OC)c(OC)c2)c(NS(=O)(=O)c2ccc(Cl)cc2)c1O [17c]
Target entity: SF-295
Number: 0.256

Compound: COc1ccc(S(=O)(=O)Nc2c(/C=C\c3cc(OC)c(OC)c(OC)c3)ccc(OC)c2O)cc1 [17a]
Target entity: SF-295
Number: 0.0339

Compound: COc1cc(/C=C\c2cc(OC)c(OC)c(OC)c2)cc(NS(=O)(=O)c2ccc(Cl)cc2)c1OC [13c]
Target entity: SF-295
Number: 0.319

Compound: COc1ccc(S(=O)(=O)Nc2cc(/C=C\c3cc(OC)c(OC)c(OC)c3)cc(OC)c2OC)cc1 [13a]
Target entity: SF-295
Number: 0.0311
